// molecules with reported IC50 on Epidermal growth factor receptor (Homo sapiens, UniProt P00533), multi-publication
Entry rule: numbers only, all in nM.

MOLECULE	MEAS VALUE
C=CC(=O)N1CCC[C@@H](n2nc(-c3ccc(C(=O)Nc4ccccn4)cc3)c3c(N)nccc32)C1	1.32
CN(C)CCCNS(=O)(=O)c1ccc(Nc2nc3ncnc(Nc4ccc(F)c(Cl)c4)c3s2)cc1	10.3
CCN1CCN(C2CCN(c3ccc(Nc4nc(Nc5cccc6c5N(S(C)(=O)=O)CC6)c5cc[nH]c5n4)cc3F)CC2)CC1	18

Next up:
Req: # lookup: Epidermal growth factor receptor (Homo sapiens, UniProt P00533) IC50, key = Cc1c2c(nn1C1CCN(C)C1)OCCN(C)Cc1c(cnn1C)-c1ccc3[nH]nc(c3c1)/C=C/2 (stereo not shown)
Resp: 70.1
